Taken from the supplement of paper PMC10065799.

- Measurement target: EPHB2 (UniProt P29323)
- Sequence (P29323 whole entry, looked up): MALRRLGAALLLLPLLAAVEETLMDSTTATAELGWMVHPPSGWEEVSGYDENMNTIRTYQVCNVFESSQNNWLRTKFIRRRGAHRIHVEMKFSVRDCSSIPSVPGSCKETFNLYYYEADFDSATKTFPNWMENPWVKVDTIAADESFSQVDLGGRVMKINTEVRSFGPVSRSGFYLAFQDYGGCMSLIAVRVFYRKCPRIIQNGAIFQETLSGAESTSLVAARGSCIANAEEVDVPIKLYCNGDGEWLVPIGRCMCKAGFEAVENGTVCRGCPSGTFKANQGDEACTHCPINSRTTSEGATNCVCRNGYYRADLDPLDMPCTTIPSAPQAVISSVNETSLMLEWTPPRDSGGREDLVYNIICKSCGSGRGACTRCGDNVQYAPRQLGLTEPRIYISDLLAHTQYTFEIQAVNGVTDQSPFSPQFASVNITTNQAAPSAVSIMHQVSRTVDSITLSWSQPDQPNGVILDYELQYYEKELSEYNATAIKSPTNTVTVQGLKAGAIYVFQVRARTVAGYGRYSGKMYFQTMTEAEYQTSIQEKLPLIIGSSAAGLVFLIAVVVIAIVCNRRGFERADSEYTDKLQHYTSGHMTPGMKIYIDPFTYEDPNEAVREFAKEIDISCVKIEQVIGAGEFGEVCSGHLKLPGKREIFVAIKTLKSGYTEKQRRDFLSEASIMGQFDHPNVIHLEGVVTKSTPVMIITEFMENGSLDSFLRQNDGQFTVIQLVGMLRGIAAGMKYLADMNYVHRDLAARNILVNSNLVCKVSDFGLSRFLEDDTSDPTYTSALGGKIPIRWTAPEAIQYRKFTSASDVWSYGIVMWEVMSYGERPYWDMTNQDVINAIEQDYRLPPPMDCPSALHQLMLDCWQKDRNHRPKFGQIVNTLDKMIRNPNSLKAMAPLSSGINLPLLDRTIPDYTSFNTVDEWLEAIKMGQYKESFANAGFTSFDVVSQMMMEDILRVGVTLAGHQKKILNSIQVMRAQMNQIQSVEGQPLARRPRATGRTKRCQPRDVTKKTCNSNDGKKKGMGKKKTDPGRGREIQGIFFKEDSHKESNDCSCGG
- Assay protocol: phosphorylation enrichment, bacterial display (enrichment ratio); higher = better substrate or ligand; peptides without Tyr show the background
Measured endpoint: phosphorylation enrichment

* LITTLYISFLG [KCNQ1_Y267_G269S] | 0.784
* SSPVLYLSPET [TJP1_Y931_P930L] | 0.815
* TLAHKYHGGGG [HBB_Y146_A141T] | 0.398
* SAVVPYEPPEV [TP53_Y220_V216A] | 0.608
* VLDCHYPEDEV [C1QBP_Y188] | 0.725
* INPIIYAFVVE [CCR5_Y297_G301V] | 3.82
* CTTIHYTYMCN [TP53_Y234_N235T] | 0.761
* YRAPGYREVVI [TNS2_Y673] | 0.43
* TKGMIYGGGGG [PSME1_Y249] | 0.416
* LEIETDRRLLD [KRT12_Y429_Y429D] | 1.03
* EYLQKYKGFKI [SYNE1_Y6953] | 0.332
* LVGTPYWMAPE [PAK5_Y608] | 0.437
* EPDSLYGCGRG [ATM_Y2019_G2023R] | 0.45
* ATDLAYYLVRE [ASL_Y375_K380E] | 0.476

----------
- Measurement target: FGFR1 (UniProt P11362)
- Sequence (P11362 whole entry, looked up): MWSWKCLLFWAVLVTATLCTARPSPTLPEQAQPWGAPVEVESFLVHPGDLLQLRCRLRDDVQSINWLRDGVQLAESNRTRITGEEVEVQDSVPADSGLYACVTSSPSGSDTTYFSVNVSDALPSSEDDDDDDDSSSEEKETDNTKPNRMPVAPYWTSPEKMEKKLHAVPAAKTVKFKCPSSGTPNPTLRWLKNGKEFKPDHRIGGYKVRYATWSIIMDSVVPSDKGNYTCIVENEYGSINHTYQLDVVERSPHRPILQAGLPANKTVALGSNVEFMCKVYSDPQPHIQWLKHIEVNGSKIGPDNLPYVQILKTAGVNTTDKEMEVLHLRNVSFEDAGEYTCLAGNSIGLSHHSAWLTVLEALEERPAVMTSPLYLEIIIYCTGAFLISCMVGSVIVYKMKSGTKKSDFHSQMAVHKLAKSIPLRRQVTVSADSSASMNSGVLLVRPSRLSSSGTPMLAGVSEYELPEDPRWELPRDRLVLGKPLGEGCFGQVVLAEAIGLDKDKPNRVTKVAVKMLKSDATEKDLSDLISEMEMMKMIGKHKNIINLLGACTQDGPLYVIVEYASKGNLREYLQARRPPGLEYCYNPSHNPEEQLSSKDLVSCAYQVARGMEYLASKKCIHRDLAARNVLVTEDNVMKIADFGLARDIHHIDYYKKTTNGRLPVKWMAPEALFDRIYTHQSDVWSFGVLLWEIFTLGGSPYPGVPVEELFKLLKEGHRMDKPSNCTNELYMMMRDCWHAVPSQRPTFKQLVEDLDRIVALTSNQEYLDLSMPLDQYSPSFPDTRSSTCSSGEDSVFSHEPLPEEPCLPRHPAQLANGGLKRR
- Assay protocol: phosphorylation enrichment, bacterial display (enrichment ratio); higher = better substrate or ligand; peptides without Tyr show the background
Measured endpoint: phosphorylation enrichment

- KNRDVSSSDFF [USP24_Y2134_Y2134S_YF]: 0.365
- RIVEIYSRSLQ [GCH1_Y175_R178S]: 0.753
- SVEVPYEPPEV [TP53_Y220_V217E]: 0.622
- EFKKHYGFSLF [ANXA3_Y295_YF]: 0.461
- DAKAIYDFTDT [PDK1_Y136]: 0.604
- KNKNRCKNILP [PTPN11_Y279_Y279C]: 0.617
- RPSRQYATLDV [SCAMP3_Y35]: 0.37
- EKQLLYSENKT [FRK_Y132]: 0.456
- LEIETYRRLRD [KRT12_Y429_L433R]: 0.645
- VKMLEYLGKDV [CASP5_Y74]: 0.375
- ETCLAYMEKRI [TEKT1_Y118_R119M]: 0.48
- SGSWSYNTSTE [SELE_Y24_A21S]: 0.527
- ELAKFYKLHHI [AK7_Y391_N389K_YF]: 0.453
- DCVRMYELVHR [GLE1_Y135_G130D]: 0.594
- VSSSDYFSFVL [USP24_Y2138_Y2134S]: 12.3
- GINDDHGQLKN [NBN_Y679_Y679H]: 0.471
- FSCLPCGRLAY [SLC52A2_Y305_Y305C]: 0.481
- FLAVEYHKPHI [IDS_Y225_G224E]: 0.393
- EKKQTYGSCRK [LACTB_Y473_R469K]: 0.395
- DSILVYQGKEQ [USH2A_Y1909]: 0.434
- LVGTPYWMAPE [PAK5_Y608]: 2.09
- RGDVIYKGFED [NFU1_Y194_G189R]: 0.514
- TLQSMYGCDVG [HLA-B_Y123]: 0.497
- KTDVRYRSLGG [DYSF_Y1858_H1857R]: 0.372
- YCRHNYGVVES [HLA-DRB1_Y112]: 0.568
- IFLADYRIMEG [ALOX12B_Y318_YF]: 0.814
- LLLLFYVVRYC [MPZ_Y177]: 0.415
- RMETAYGPSVT [MXRA5_Y2717_E2716A]: 0.448
- TDLAFYLVCKG [ASL_Y376_R379C_YF]: 0.551

----------
Reported SH2 binding enrichment is given for each of the following sequences.
- Measurement target: Grb2 SH2 (UniProt P62993)
- Sequence (P62993 whole entry, looked up): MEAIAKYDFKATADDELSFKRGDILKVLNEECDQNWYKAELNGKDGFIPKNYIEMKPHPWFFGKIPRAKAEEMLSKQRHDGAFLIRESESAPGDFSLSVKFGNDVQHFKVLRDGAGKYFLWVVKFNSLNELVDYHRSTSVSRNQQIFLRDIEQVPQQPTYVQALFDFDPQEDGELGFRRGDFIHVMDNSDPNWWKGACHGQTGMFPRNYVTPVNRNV
- Assay protocol: SH2 binding enrichment of the phosphorylated peptide, bacterial display (enrichment ratio); higher = better substrate or ligand; peptides without Tyr show the background
Measured endpoint: SH2 binding enrichment

• RVLQLYGCSPS [ASTL_Y279_K277Q] = 0.853
• VFPIDYYFPPQ [AR_Y552_L548F] = 1.24
• NVTRKYSRQIL [MAP3K2_Y463_T464S] = 1.06
• MCDKEYFSVHN [MET_Y1234_Y1230C_YF] = 1.15
• TMEDSYRKQVV [KRAS_Y40_I36M] = 0.728
• NYYDTCIKTCL [IQGAP2_Y1445_Y1445C] = 0.856
• FPLAEYTEVKT [ALDH1A3_Y497_A493P_YF] = 0.884
• VLDCHYPEDEV [C1QBP_Y188] = 1.01
• EACRSYSHVVL [CHST6_Y168] = 0.958
• SGVSFYINLCQ [IGF2R_Y2025_N2020S_YF] = 2.21
• ARMTNYGLPRF [TSPAN12_Y138_YF] = 0.887
• TTIVSYRASQP [MKI67_Y1737_K1734I] = 0.688
• LYSINYLHFGD [KDM4C_Y201_E206D] = 1.69
• APGDAYGDAGF [SYP_Y250_YF] = 0.714
• RAIDMYLMGCF [GABRB2_Y308_K303R] = 0.886
• KTTGGYAGGLS [KRT8_Y419_S417G] = 0.853
• DCVRMYELVHR [GLE1_Y135_G130D] = 0.925
• FHRQLYHKCTH [F12_Y58_YF] = 1.03
• VTSLKYSTSPF [BRIP1_Y916_YF] = 1.09
• RFLERDIFNRE [HLA-DPB1_Y57_Y57D_YF] = 0.927
• NSNSDYVDILP [SH2D1B_Y127_V130I] = 0.788
• TKGMIYGGGGG [PSME1_Y249] = 1.05
• DRLASNLDKVR [KRT10_Y160_Y160N] = 0.883
• SDVWSYGVTMW [ZAP70_Y525] = 0.84
• ENRKYYMDLKE [PURA_Y156] = 0.761
• KQVEQYMSFHK [HCN1_Y417] = 0.782
• HQPGEYIFHAE [FLT3_Y416] = 0.668
• RAIELYNDKEK [OTULIN_Y244] = 0.735
• CKSVHYDLVFL [COL22A1_Y37] = 0.775
• KFADVYVGICL [B3GALNT1_Y269_E266A] = 0.731
• FDDIAYIRKNL [PIK3CA_Y1021_T1025N] = 0.768
• IFHENYNAGTY [CFI_Y421] = 0.788
• LTQRTYMLENA [GPAA1_Y49_S51L] = 0.988
• REEIKYMLWLS [OTC_Y55_G50R] = 0.642
• SPRDTYSDRSG [CTPS1_Y567] = 0.76
• PQGVRYTFTID [DCX_Y103_I104T_YF] = 0.786
• GGGGGYNRSSG [FUS_Y232] = 0.682
• VLNKGYRMVVN [HINT1_Y94_G89V] = 0.707
• AQMAMYFWEMG [TRPM4_Y577] = 1.49
• FRGFSYDDIPD [TMEM230_Y112_YF] = 0.882
• KKLEVYQSIAD [MYBPC3_Y548] = 0.792
• IGERTYGQVYK [CDK13_Y716_G714R] = 0.866
• ATDLAYYLVRE [ASL_Y375_K380E] = 1.08
• TEAGDYKLCFD [TMED1_Y103] = 0.778
• FDDIACIRKTL [PIK3CA_Y1021_Y1021C] = 0.668
• TYTVSYLPDMS [FLNC_Y1602] = 0.792
• ALAHKYQGGGG [HBB_Y146_H147Q] = 0.691
• DRPASYLEKVR [KRT13_Y118_L115P] = 1.08
• SVFNNYIQTLG [CTNND1_Y174_S171F] = 1.05
• FPILNYKDIRK [CFAP221_Y798_M795I] = 0.76
• KGPNVYKKTVN [REV3L_Y1156] = 0.633
• VQEDIYDEFVE [ALDH2_Y332] = 0.752
• LRNRVYEVPVE [SLC26A3_Y756] = 1.25
• SEPDLYYDPRG [PKP1_Y160_C161Y] = 0.864
• AVSHRYDLGGL [QPRT_Y162_A158V] = 0.849
• VEDQYYCVDCY [FHL1_Y208] = 1.35
• TGNPAYRSFSN [IL4R_Y497_A492T] = 0.791

----------
- Measurement target: Fyn (UniProt P06241)
- Sequence (P06241 whole entry, looked up): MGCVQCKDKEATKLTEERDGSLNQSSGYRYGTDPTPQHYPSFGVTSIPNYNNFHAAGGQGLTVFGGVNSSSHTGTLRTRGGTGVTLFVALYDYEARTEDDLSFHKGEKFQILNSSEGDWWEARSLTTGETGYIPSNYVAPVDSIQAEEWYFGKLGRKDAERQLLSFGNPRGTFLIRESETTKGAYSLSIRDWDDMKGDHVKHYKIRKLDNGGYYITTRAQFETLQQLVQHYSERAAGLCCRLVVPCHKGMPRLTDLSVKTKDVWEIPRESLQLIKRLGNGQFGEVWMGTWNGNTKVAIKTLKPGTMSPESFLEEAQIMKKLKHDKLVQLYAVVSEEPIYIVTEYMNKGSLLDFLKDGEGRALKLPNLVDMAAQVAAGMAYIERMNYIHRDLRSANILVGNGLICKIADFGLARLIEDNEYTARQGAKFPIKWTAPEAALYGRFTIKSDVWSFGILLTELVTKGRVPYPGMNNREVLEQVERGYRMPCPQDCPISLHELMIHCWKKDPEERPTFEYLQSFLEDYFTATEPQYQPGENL
- Assay protocol: phosphorylation enrichment, bacterial display (enrichment ratio); higher = better substrate or ligand; peptides without Tyr show the background
Class (by phosphorylation enrichment) -- band 1 = under 0.5, band 2 = from 0.5 up to 0.7, band 3 = 0.7 and over

- SVVVPYEPTEV [TP53_Y220_P223T]: band 2
- DNQFAYLKAII [HNF4A_Y288_E285Q_YF]: band 1
- HKNNNYEPNLF [BRCA2_Y57]: band 2
- HNVAIYEGFAL [ACTC1_Y168_P166A_YF]: band 3
- SLQAHYDTPRS [DOK7_Y405_R402Q]: band 1
- EYLQKYKGFKI [SYNE1_Y6953]: band 1
- YAKSVYWENTL [NUP107_Y296]: band 2
- RIVEIYSRSLQ [GCH1_Y175_R178S]: band 3
- ASPKSYPSQKH [CAP2_Y316_T311A]: band 1
- LITTLYISFLG [KCNQ1_Y267_G269S]: band 3
- NLDRFYQQVTK [SEC16A_Y1041]: band 1
- LNPDGYEKAYE [CPXM2_Y427]: band 3
- TTANRYLKVSD [MYOM2_Y871]: band 1
- INMKEYCKKDF [NTN1_Y490_K489E_YF]: band 2
- ENFDDYMKDVG [FABP4_Y20_E23D]: band 2
- LWPIWYRCRRP [MRGPRX1_Y130_H133R]: band 2
- GMKIVYVFVKK [DNAI2_Y5_E2K_YF]: band 1
- ADSLRYIFPKL [EIF2B3_Y92_YF]: band 1
- RASDFYSQQMA [GBP6_Y334_A331S_YF]: band 1
- AMIADYMFWLG [SPATA16_Y290]: band 3
- GHGEEYPVAGA [NOTCH3_Y2221_A2223V]: band 1
- AGLEEYSAMRD [HRAS_Y64_Q61L]: band 1
- CNNFICGGCRG [SPINT2_Y163_Y163C]: band 2
- QMIETYFDFRL [NSMF_Y506]: band 3
- REEIKYMLWLS [OTC_Y55_G50R]: band 2
- PPGRSYSPCDF [TNS1_Y793_Y796C_YF]: band 1
